- Assay Target: KDM4A (Homo sapiens, UniProt O75164)
- Construct: N-terminal His-tagged KDM4A^1-350 was purchased from BPS Biosciences; His (N); purchased BPS Biosciences
- Sequence (O75164 1-350): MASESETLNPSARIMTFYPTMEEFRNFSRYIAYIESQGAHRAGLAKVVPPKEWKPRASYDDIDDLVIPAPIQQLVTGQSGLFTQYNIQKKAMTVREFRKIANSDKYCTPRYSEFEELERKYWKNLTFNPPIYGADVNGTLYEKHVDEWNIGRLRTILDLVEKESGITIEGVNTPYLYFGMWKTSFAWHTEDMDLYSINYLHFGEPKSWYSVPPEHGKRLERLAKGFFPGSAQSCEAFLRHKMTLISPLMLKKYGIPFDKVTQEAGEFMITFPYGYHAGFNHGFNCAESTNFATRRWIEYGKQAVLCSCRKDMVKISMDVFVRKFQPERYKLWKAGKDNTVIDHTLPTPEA
- Assay Procedure: KDM4A Assay (SAMDI mass spectrometry demethylase assay)
- Format: biochemical
- Setup Conditions: N-terminal His-tagged KDM4A 1-350; class symbols; read-out: 4A IC50
Measure: IC50

Query :: Which value of IC50 has been reported for `O=C(O)c1ccncc1Nc1cnn(CCN2CCC(F)(F)CC2)c1-c1ccccc1` in the records?
Result :: 100 to 1000 nM

Query :: Which value of IC50 has been reported for `Cc1cn(-c2ccccc2C#N)nc1Nc1cnccc1C(=O)O` in the records?
Result :: 100 to 1000 nM

Query :: Which value of IC50 has been reported for `CN1CCN(CCn2ncc(-c3ccccc3)c2Nc2cnccc2C(=O)O)CC1` in the records?
Result :: 100 to 1000 nM

Query :: Which value of IC50 has been reported for `Cc1nn(C2CCNCC2)cc1Nc1cnccc1C(=O)O` in the records?
Result :: 100 to 1000 nM

====

- Assay Target: KDM4C (Homo sapiens, UniProt Q9H3R0)
- Construct: N-terminal GST-tagged KDM4C^2-372 was purchased from BPS Biosciences; GST (N); purchased BPS Biosciences
- Sequence (Q9H3R0 2-372): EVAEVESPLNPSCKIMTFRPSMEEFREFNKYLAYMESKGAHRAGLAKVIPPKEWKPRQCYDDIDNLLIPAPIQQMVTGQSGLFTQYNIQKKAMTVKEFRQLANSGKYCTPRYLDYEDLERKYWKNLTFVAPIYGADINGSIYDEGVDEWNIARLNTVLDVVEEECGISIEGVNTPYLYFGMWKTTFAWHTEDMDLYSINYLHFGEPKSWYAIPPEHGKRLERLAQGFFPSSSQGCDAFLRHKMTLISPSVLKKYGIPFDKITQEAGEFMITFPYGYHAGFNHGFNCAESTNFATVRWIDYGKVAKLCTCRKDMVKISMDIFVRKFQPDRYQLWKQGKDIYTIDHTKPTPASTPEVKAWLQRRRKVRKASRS
- Assay Procedure: KDM4C Assay (SAMDI mass spectrometry demethylase assay)
- Assay type: biochemical
- Setup Conditions: N-terminal GST-tagged KDM4C 2-372; class symbols; read-out: 4C IC50
pIC50: −log10 of the molar value.
Some molecules, each annotated with its measured pIC50.

Guide cases for pIC50, answers given:
Molecule	Assay Target	pIC50
O=C(O)c1ccncc1Nc1cnn(C2CCN(Cc3ccccc3)C2)c1-c1ccccc1 (stereo not drawn)	KDM4C (Homo sapiens, UniProt Q9H3R0)	6.00 to 7.00
Cc1nn(CCN(C)C)cc1Nc1cnccc1C(=O)O	KDM4C (Homo sapiens, UniProt Q9H3R0)	5.00 to 6.00
Cc1c(Nc2cnccc2C(=O)O)cnn1C1CCCNCC1 (single isomer, unassigned)	KDM4C (Homo sapiens, UniProt Q9H3R0)	6.00 to 7.00
Cc1nn([C@H]2CC[C@@H](N)CC2)cc1Nc1cnccc1C(=O)O	KDM4C (Homo sapiens, UniProt Q9H3R0)	6.00 to 7.00
Cc1c(Nc2cnccc2C(=O)O)cnn1C1CCN(c2ccccc2)CC1	KDM4C (Homo sapiens, UniProt Q9H3R0)	7.00 to 9.00

Query :: Short answer please: pIC50, KDM4C (Homo sapiens, UniProt Q9H3R0), entry `Cc1c(Nc2cnccc2C(=O)O)cnn1C1CCN(CC2CC2)CC1`
Result :: 6.00 to 7.00

Query :: Short answer please: pIC50, KDM4C (Homo sapiens, UniProt Q9H3R0), entry `CN(C)CCc1cn(-c2ccccc2)nc1Nc1cnccc1C(=O)O`
Result :: 5.00 to 6.00

Query :: Short answer please: pIC50, KDM4C (Homo sapiens, UniProt Q9H3R0), entry `Cn1cc(-c2cccc(F)c2)c(Nc2cnccc2C(=O)O)n1`
Result :: 6.00 to 7.00

Query :: Short answer please: pIC50, KDM4C (Homo sapiens, UniProt Q9H3R0), entry `Cc1cn(-c2ccccc2)nc1Nc1cnccc1C(=O)O`
Result :: 7.00 to 9.00
